test: In vivo pharmacokinetic study; set-up: species or system CD-1 mice; details: male, CD-1, mouse, plasma; CD1 mice, IV 10 mg/kg; read-out: MRTInf_obs
metric.name: MRT inf (min)
Respond with the bare value in min.

State its MRT inf for this molecule: CC12CCC(=O)C=C1CCCC2n1cc(-c2ccccc2)nn1 (stereo not shown)
3.7

###

test: in vitro; details: dog, MDCK, Recovery (%) BL-AP, MDCK cells
metric.name: recovery

Answer with the recorded recovery of C[C@]12CC[C@H]3[C@@H](CC=C4C[C@@H](O)CC[C@@]43C)[C@@H]1CC[C@@H]2c1cn(Cc2ccccc2)nn1 only.
88.1%

###

target: UniProtKB P06685; experiment: Na,K-ATPase activity assay, α1β1 expressed in Sf9 insect cells; conditions: read-out: NKA Isoform Specificity (IC50 M) NKAα1
pIC50: −log10 of the molar value.
Measured pIC50 of individual entries

compound: C[C@]12CC[C@H]3[C@@H](CC=C4C[C@@H](O)CC[C@@]43C)[C@@H]1CC[C@@H]2c1cn(Cc2ccccc2)nn1 [Compound 13]
pIC50: < 4.00

// Input: CC12CCC(=O)C=C1CCCC2n1cc(-c2ccccc2)nn1 (centres unmarked) [Compound 45] . Output its pIC50 only.
< 4.00

###

Assay: In vivo pharmacokinetic study
Parameters: species or system CD-1 mice
Settings: male, CD-1, mouse, plasma, po, 10 mg/kg, CD1 mice, PO 10 mg/kg; read-out: F% (oral bioavailability)
Method: Male CD-1 mice (approximately 6–8 weeks old, weighing 20–25 g, supplied by Vital River, Beijing, China) were used for the pharmacokinetic studies. Each mouse (n = 2) received either a bolus intravenous injection via the tail vein or oral gavage administration of the test compound. […] Plasma samples were analyzed using the LC/MS/MS method. […] Quantification Internal Standard Method […] 4. The bioavailability (F%) was calculated as following: […]
metric.name: bioavailability (%)
Report only the number, with the unit % understood.

// fetch bioavailability given entry CC12CCC(=O)C=C1CCCC2n1cc(-c2ccccc2)nn1 (stereo not shown)
14

###

Recorded recovery by entry
test: MDCK cell permeability; details: dog, MDCK, Recovery (%) AP-BL, MDCK cells
Numbers only; they are read as %.

molecule: C[C@H]1O[C@@H](O[C@H]2[C@@H](O)C[C@H](O[C@H]3[C@@H](O)C[C@H](O[C@H]4CC[C@@]5(C)[C@H](CC[C@@H]6[C@@H]5C[C@@H](O)[C@]5(C)[C@@H](C7=CC(=O)OC7)CC[C@]65O)C4)O[C@@H]3C)O[C@@H]2C)C[C@H](O)[C@@H]1O [Digoxin]
reported.result: 84

From here, focus on the item given below.
Report recovery for COCCc1ccc(OCC(O)CNC(C)C)cc1 (centres unmarked) [Metoprolol]
83.5

###

Assay: Caco-2 cell permeability
Type: in vitro ADME, human
Conditions: human, Caco-2, Caco-2 cell line; read-out: Permeability Papp (A-B)
Description: The in vitro permeability and potential to be transported by P-gp (P-glycoprotein) were determined in a Caco-2 or MDCK cell line. Values are reported for a mass recovery > 60%. The efflux ratio was determined as follows: P^app(B-A)/Papp(A-B). […] The recovery can be determined using the following equation: […] The leakage of Lucifer Yellow, in unit of percentage (%), can be calculated using the following […] calculated for Caco-2 Cell drug transport assays using the above equations. […]
metric.name: Papp A→B (×10⁻⁶ cm/s)
Enter your answer as a number in ×10⁻⁶ cm/s; do not include the unit.

Specify Papp A→B for CC12CCC(=O)C=C1CCCC2n1cc(-c2ccccc2)nn1 (stereo not shown) and stop.
24
